Hello, the source for this data is the kinase profiling compilation of Christmann-Franck et al. (2016), in case you need it.

- tested.target: UniProt:P49760
- Sequence (P49760 whole entry, looked up): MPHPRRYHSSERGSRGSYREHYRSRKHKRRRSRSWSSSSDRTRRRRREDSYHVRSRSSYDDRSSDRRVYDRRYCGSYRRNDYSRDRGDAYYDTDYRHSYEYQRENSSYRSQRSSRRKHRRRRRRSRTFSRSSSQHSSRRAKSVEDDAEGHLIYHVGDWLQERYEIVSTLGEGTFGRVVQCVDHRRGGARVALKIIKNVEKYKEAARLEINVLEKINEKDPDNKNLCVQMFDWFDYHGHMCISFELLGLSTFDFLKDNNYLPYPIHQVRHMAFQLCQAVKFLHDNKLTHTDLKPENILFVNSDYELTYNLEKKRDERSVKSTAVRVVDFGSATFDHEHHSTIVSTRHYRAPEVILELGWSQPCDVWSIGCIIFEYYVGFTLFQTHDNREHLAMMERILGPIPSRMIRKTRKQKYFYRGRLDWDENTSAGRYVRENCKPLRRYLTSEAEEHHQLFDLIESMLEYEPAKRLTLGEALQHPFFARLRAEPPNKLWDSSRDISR
- experiment.summary: radiometric filter-binding kinase assay, Kinase HotSpot
- study.conditions: compound 0.5 µM; ATP 10 µM
Please note: True applies when residual activity is 90% or greater, and False applies otherwise.

Qu. Could you please find out whether `COc1cccc(-c2cc(=O)c3ccccc3o2)c1N` has residual activity that meets 90% or exceeds it?
Ans. True

Qu. Same thing, different compound: `c1ccc(-c2cnc(Nc3ccc(OCCN4CCCC4)cc3)s2)cc1`
Ans. True

Qu. For `O=S(=O)(NCCNC/C=C/c1ccc(Br)cc1)c1cccc2cnccc12` then?
Ans. True

Qu. Ok, now `O=c1c(-c2ccc(F)cc2)c(-c2ccncc2)[nH]n1-c1ccc(Cl)cc1`
Ans. True

Qu. Lookup `Cn1cc(/C=C2\C(=O)Nc3ccc(S(N)(=O)=O)cc32)c2ccccc21`
Ans. False

Qu. Similarly, `N#CCCc1ccc2c(c1)-c1[nH]c3ccc([N+](=O)[O-])cc3c1CC(=O)N2` ?
Ans. True

Qu. Input `O=c1[nH]c2ccccc2n1C1CCN(Cc2ccc(-c3nc4cc5[nH]cnc5cc4nc3-c3ccccc3)cc2)CC1`
Ans. True

Qu. What do you get for `O=C(c1ccccc1)c1ccc(N2CCOCC2)cc1O` ?
Ans. True

Qu. Next compound: `CCCCc1c(-c2ccc(O)cc2)[nH]c2nccnc12`
Ans. False

Qu. Try the compound `COc1cc2ncnc(Nc3ccc(O)c(Br)c3)c2cc1OC`
Ans. True

Qu. What about this compound? `O=c1cc(N2CCOCC2)oc2c(-c3ccccc3)cccc12`
Ans. True

Qu. Another compound: `N#Cc1c(NC(=O)c2cccc3ccccc23)sc2c1CCCC2`
Ans. True

Qu. Thanks! And `COc1cc2c(cc1OC)-c1[nH]nc(Nc3cccc(F)c3)c1C2` ?
Ans. False

Qu. Input `O=C1NC(=O)c2c1c1c3ccccc3[nH]c1c1[nH]c3cc(Br)ccc3c21`
Ans. False
